Item-by-item account of pKi
Target: human α-thrombin (Homo sapiens)
Test: biochemical
Type: biochemical
Conditions: human α-thrombin, S-2238, 37° C.; read-out: Ki
Lab note: report pKi as minus log10 of the concentration in molar units, number only.

molecule	measured.number
NC(C(=O)N1CCCC1C(=O)NC(c1ccccc1)P(=O)(O)O)C(c1ccccc1)c1ccccc1 [Compound 16, D,L-Dpa-Pro-Pgl^P(OH)2]	6.65

Now for the molecule whose pKi we want.
Challenge: Lab note: need pKi for COCCCC(NC(=O)[C@@H]1CCCN1C(=O)[C@H](N)C(c1ccccc1)c1ccccc1)P(=O)(Oc1ccccc1)Oc1ccccc1 (stereo partly drawn) [Compound 32, H-D-Dpa-Pro-Mpg^P(OPh)2] on human α-thrombin (Homo sapiens), anyone have it?
Response given: 8.32

====

Assay: IC50 with and without incubation (enzyme not given)
Assay type: biochemical
Conditions: with incubation; read-out: IC50 Inc.
Measured IC50 of individual entries
Give a bare numeral; the unit nM is implied.

molecule	units.text	IC50
COCCCC(NC(=O)[C@@H]1CCCN1C(=O)[C@H](N)Cc1ccccc1)P(=O)(Oc1ccccc1)Oc1ccccc1 (stereo partly drawn) [Compound 40, H-D-Phe-Pro-Mpg^P(OPh)2]	nM	11.8
COCCCC(NC(=O)[C@@H]1CCCN1C(=O)[C@H](N)C(c1ccccc1)c1ccccc1)P(=O)(Oc1ccccc1)Oc1ccccc1 (stereo partly drawn) [Compound 32, H-D-Dpa-Pro-Mpg^P(OPh)2]	nM	2.35

Switching to the query record.
Challenge: Given the molecule NC(C(=O)N1CCCC1C(=O)NC(c1ccccc1)P(=O)(O)O)C(c1ccccc1)c1ccccc1 [Compound 16, D,L-Dpa-Pro-Pgl^P(OH)2] , what is its reported IC50?
Response given: 81.7

====

Target: human α-thrombin (Homo sapiens)
Experiment: biochemical
Assay type: biochemical
Settings: read-out: Ki
endpoint.label: pKi
// scale note: pKi = -log10(conc_M); give the bare number

compound	target.or.test.system	measured.number
N=C(N)NCCCC(NC(=O)C1CCCN1C(=O)C(N)C(c1ccccc1)c1ccccc1)C(=O)CCC(=O)N1CCCCC1.O=C(O)C(F)(F)F.O=C(O)C(F)(F)F [Compound 6, D-Dpa-Pro-Arg--k--Gly-Pip]	human α-thrombin (Homo sapiens)	6.70
N=C(N)NCCCC(NC(=O)C1CCCN1C(=O)C(N)Cc1ccc2ccccc2c1)C(=O)CCC(=O)N1CCCCC1 (mixture of isomers)	human α-thrombin (Homo sapiens)	4.94
N=C(N)NCCCC(NC(=O)C1CCCN1C(=O)C(N)C(c1ccccc1)c1ccccc1)C(=O)CCC(=O)N1CCCCC1 (mixture of isomers)	human α-thrombin (Homo sapiens)	6.22
COCCCC(NC(=O)[C@@H]1CCCN1C(=O)[C@H](N)Cc1ccccc1)P(=O)(Oc1ccccc1)Oc1ccccc1 (stereo partly shown)	human α-thrombin (Homo sapiens)	7.73
N=C(N)Nc1ccc(CC(NC(=O)[C@@H]2CCCN2C(=O)[C@H](N)Cc2ccccc2)C(=O)CCC(=O)N2CCCCC2)cc1 (stereo partly shown)	human α-thrombin (Homo sapiens)	5.89

Challenge: If you can, please state the reported pKi value of N=C(N)NCCCC(NC(=O)C1CCCN1C(=O)C(N)C(c1ccccc1)c1ccccc1)C(=O)CCC(=O)N1CCCCC1.O=C(O)C(F)(F)F.O=C(O)C(F)(F)F (stereo not drawn) [Compound 7, L,Dpa-Pro-Arg--k--Gly-Pip] .
Response given: 5.77

Measured values drawn from patent US6387881B1 for this set.
